# method_description: chemical genetic growth profiling, strain panel (AID 1159580);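 note: tested at 20 µM; growth read once vehicle control cultures reached saturation at 30 °C; 1 = growth at the plate median or of vehicle wells; lower values mean less growth of the strain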
# run_parameters: S. cerevisiae deletion strains, growth OD, locus YGR229C, strain SMI1, active compounds read low
Out of some 5,500 compounds screened, about 2,000 (36%) were called active. Roughly 18% stayed inconclusive and do not appear here. Some of the results follow.
Overview of recorded normalized growth for various compounds
Just the number, please, no unit attached.

Example entries begin here.
>  <compound>
Oc1ccc(Cn2cc[nH]c2=S)cc1

>  <outcome_measure>
normalized growth

>  <reported>
0.986

$$$$
>  <compound>
CCc1cccc(C)c1N(C(=O)CCl)C(C)COC (stereo not drawn)

>  <outcome_measure>
normalized growth

>  <reported>
1.03

$$$$
>  <compound>
CC(C)N(C(=O)CCl)c1ccccc1

>  <outcome_measure>
normalized growth

>  <reported>
1.05

$$$$
>  <compound>
CCCCCC(C)N (stereo not drawn)

>  <outcome_measure>
normalized growth

>  <reported>
1.01

$$$$
>  <compound>
CC(=O)/C(=C\Nc1ncccn1)S(=O)(=O)c1ccc(Cl)cc1

>  <outcome_measure>
normalized growth

>  <reported>
1

$$$$

Input: Data request, read-out normalized growth, for "CNc1ccccc1C(=O)N1CCc2c([nH]c3ccccc23)C1=O"
Output: 1

Input: Moving on to "CCOC(=O)/C=C(\C)OP(=O)(OC)OC"
Output: 0.984

Input: Moving on to "Cn1cc[nH]c1=S"
Output: 1.01
